Hey, just so you know, these numbers are from patent US20250154277A1.

TEST_TARGET: T1, human 5T4-His protein (human, UniProt Q13641 32-355)
T1 construct: also called recombinant 5T4 protein (human 5T4-his tag); human 5T4 protein; not shown: His tag
T1 sequence (looked up): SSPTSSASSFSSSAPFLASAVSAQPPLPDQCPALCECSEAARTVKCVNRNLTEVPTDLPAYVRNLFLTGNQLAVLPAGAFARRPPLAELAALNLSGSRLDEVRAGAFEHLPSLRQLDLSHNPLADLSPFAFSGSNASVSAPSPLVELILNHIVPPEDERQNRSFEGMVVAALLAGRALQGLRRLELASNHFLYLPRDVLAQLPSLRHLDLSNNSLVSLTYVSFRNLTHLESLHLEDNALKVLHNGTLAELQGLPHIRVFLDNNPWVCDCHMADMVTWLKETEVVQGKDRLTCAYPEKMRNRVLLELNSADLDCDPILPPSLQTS
EXPERIMENT_NOTES: ELISA, coated antigen
Protocol: ELISA testing was carried out to evaluate the binding of chimeric antibodies to human and cynomolgus, respectively. […] Briefly, microtiter plates were coated with human and cynomolgus 5T4 proteins at […] in PBS, 100 μl/well at 4° C. overnight, then blocked with 150 μl/well of 1% BSA. […] After washing, the plates were developed with TMB substrate and analyzed by spectrophotometer at OD 450 nm. […]
Kindly state pEC50 for each of the entries shown.
Hey, just a heads up that pEC50 is the negative log base 10 of the concentration in molar.

query: For the binder 14G12 chimeric antibody (antibody, V domains shown, chimeric mAb) VH: EVQLQQSGPELVKPGASVKISCKASGYAFSSSWMNWVKQRPGKGLEWIGRIYREDGHTNYNGKFKGKATLTADKSSTTAYMQLTSLTSEDSAVYFCANGGAMDYWGQGTSVTVSS VL: DIQMTQSTSSLSASLGDRVTISCRASQDISNYLNWYQQKPDGTVKLLIYYTSRLHSGVPSRFSGSGSGTDYSLTISNLEQEDIATYFCQQDNTLPWTFGGGTKLEIK , report pEC50.
result: 9.72

query: Report pEC50, nothing else, for this binder: 24F10 chimeric antibody (antibody, V domains shown, chimeric mAb) VH: EVQLVESGGGLVKPGGSLKLSCAASGFTFSDYGMHWVRQAPEKGLEWVAYISSGTSTIYYTDTVKGRFTISRDNAKNTLFLQMTSLRSEDTAMYYCARGGDGYYRSTMDYWGQGISVTVSS VL: DIVLTQSPASLAVSLGQRATISCRASQSVSSSSYSYMHWYQQKPGQPPKLLIKSASNLASGVPARFSGSGSGTDFTLNIHPVEEEDSATYYCQHSWEVPRTFGGGTKLEIK
result: 9.74

query: Indicate its recorded pEC50; the binder in question is 109H7 chimeric antibody (antibody, V domains shown, chimeric mAb) VH: QVQLQQSGAELMKPGASVKLSCKATGYTFTGYWIEWVKQRPGQGLEWIGETLPGRGSTNYNEKFKGKATFTADTSSNIVYMQLSSLTIEDSAIYYCARGRRDFDYWGQGTTLTVSS VL: DIQMTQTTSSLSASLGDEVTISCSASQGINNYLNWYQQKPDGTVKLLIYYTSSLHSGVPSRFSGSGSGTDYSLTIINLEPEDIATYYCQQFSKLPFTFGSGTKLEIR
result: 9.51
